PROCEDURE_SUMMARY: Apparent permeability across basolateral side to apical side in human Caco2 cells
Type: ADME, cell-based
MEASUREMENT_SETUP: Caco-2
PROPERTY_MEASURED: Papp B→A (×10⁻⁶ cm/s)
API: value field is a number in ×10⁻⁶ cm/s; no unit string.

Qu. Form field: reported Papp B→A of O=C(NCCc1c[nH]c2ccccc12)C1CCN(C(=O)c2ccc(-c3ccccc3)cc2)CC1
Ans. 32.8

* * *

Heads up, these compounds all have Ki values measured for 5-hydroxytryptamine receptor 1E (Homo sapiens, UniProt P28566).

ITEM_SMILES: O=C(NCCc1c[nH]c2ccccc12)C1CCN(C(=O)c2ccc(-c3ccccc3)cc2)CC1
EXPERIMENTAL_SYSTEM: 5-hydroxytryptamine receptor 1E (Homo sapiens, UniProt P28566)
Sequence (P28566 whole entry): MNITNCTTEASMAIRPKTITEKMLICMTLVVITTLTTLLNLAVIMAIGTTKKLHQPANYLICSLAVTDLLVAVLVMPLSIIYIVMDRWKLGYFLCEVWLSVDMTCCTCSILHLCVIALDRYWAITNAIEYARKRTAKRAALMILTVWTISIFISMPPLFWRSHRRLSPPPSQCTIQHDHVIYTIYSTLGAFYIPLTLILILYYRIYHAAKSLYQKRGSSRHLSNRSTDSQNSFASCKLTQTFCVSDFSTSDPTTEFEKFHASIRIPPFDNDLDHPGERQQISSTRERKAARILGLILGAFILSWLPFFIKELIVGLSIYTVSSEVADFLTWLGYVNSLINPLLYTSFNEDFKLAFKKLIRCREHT
Ki: > 10 µM

Qu. Ki of O=C(NCCc1c[nH]c2ccccc12)C1CCN(C(=O)c2ccccc2)CC1 on 5-hydroxytryptamine receptor 1E (Homo sapiens, UniProt P28566)?
Ans. > 10 µM

* * *

EXPERIMENTAL_SYSTEM: 5-hydroxytryptamine receptor 1A (Homo sapiens, UniProt P08908)
Sequence (P08908 whole entry): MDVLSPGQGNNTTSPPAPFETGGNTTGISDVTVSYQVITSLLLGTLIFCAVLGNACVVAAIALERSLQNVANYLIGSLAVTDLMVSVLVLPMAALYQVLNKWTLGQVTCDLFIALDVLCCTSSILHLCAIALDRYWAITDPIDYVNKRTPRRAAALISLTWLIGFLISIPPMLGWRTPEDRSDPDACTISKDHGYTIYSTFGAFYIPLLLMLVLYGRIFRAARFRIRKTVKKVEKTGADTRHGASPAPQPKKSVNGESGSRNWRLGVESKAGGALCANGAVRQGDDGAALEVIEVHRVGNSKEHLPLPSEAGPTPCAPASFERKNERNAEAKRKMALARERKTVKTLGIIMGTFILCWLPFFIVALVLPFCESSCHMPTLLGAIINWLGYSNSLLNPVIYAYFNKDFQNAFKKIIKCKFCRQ
PROPERTY_MEASURED: pKi
pKi is a log-scale quantity: -log10 of the concentration expressed in molar.

Qu. Form field: reported pKi of O=C(NCCc1c[nH]c2ccccc12)C1CCN(C(=O)c2ccccc2)CC1
Ans. 5.27

* * *

EXPERIMENTAL_SYSTEM: 5-hydroxytryptamine receptor 2B (Homo sapiens, UniProt P41595)
Sequence (P41595 whole entry): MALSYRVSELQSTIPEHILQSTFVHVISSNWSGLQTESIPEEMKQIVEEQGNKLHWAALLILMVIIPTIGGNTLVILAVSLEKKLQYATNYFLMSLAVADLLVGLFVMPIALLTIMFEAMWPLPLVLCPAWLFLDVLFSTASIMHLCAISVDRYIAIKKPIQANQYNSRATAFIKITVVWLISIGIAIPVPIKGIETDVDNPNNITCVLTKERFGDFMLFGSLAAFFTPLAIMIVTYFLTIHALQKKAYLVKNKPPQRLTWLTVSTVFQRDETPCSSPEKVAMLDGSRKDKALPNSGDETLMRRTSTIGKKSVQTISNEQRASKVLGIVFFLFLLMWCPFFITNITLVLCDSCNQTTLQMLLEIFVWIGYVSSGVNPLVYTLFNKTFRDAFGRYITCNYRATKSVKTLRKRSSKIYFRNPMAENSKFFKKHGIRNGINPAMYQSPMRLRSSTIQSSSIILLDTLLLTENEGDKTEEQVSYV
PROCEDURE_SUMMARY: Antagonist activity at recombinant human 5-HT2B receptor expressed in CHOK1 cells assessed as inhibition of serotonin-induced calcium flux preincubated for 60 mins at 37 degC followed by incubation at room temperature for 15 mins and subsequent addition of serotonin and measured for 100 secs in presence of human serum albumin by fluorescence assay
Type: functional, cell-based
PROPERTY_MEASURED: pIC50
pIC50 is a log-scale quantity: -log10 of the concentration expressed in molar.

Qu. Form field: reported pIC50 of O=C(NCCc1c[nH]c2ccccc12)C1CCN(C(=O)c2ccc(-c3ccccc3)cc2)CC1
Ans. 7.73

* * *

Heads up, these compounds all have Ki values measured for 5-hydroxytryptamine receptor 1B (Homo sapiens).
API: value field is a number in µM; no unit string.

ITEM_SMILES: O=C(NCCc1c[nH]c2ccccc12)C1CCN(C(=O)c2ccccc2)CC1
PROPERTY_MEASURED: Ki
QUANTITATIVE_READOUT: 7.6

Qu. Form field: reported Ki of O=C(NCc1ccccc1)C1CCN(C(=O)c2ccc(-c3ccccc3)cc2)CC1
Ans. 8.59
